Sourced from patent US9062074B2

- TEST METHOD NOTES: Solubility assessment (solvent added in 10 volume aliquots)
- Assay type: physicochemical
- COND: toluene, organic solvent or mixture, thermodynamic from solid, Toluene, 80 vols; read-out: Solubility assessment observation
MEASUREMENT NAME: solubility

Prompt: Item under review: C1=C2COC/C=C/COCc3cc(ccc3OCCN3CCCC3)Nc3nccc(n3)C(=C1)O2 . Reported solubility?
Completion: < 12.5 mg/mL

###

- TEST METHOD NOTES: Solubility assessment (solvent added in 10 volume aliquots)
- Type: physicochemical
- COND: THF, organic solvent or mixture, thermodynamic from solid, THF, 10 vols; read-out: Solubility assessment observation
MEASUREMENT NAME: solubility

Prompt: Item under review: C1=C2COC/C=C/COCc3cc(ccc3OCCN3CCCC3)Nc3nccc(n3)C(=C1)O2 . Reported solubility?
Completion: < 100 mg/mL
